assay: incubation effect on Rab7 inhibitor curves, late-stage follow-up, mechanism study, biochemical, Rab7 wildtype, bead flow cytometry, two incubation protocols (AID 720699); conditions: Rab7 beads, Bodipy-FL-GTP binding, protocol B
pEC50: −log10 of the molar value.
endpoint name: pEC50

a. CC1(C)Cc2c(sc(NC(=S)NC(=O)c3cccc(N=[N+]=[N-])c3)c2C(=O)O)CO1
b. CC1(C)Cc2c(sc(NC(=S)NC(=O)c3ccc(N=[N+]=[N-])cc3)c2C(=O)O)CO1
IN: Sorting by pEC50 in descending order, would a or b appear first? Respond with the label that goes with your answer.
OUT: b
(b: 6.76, a: 5.91)
